assay: Antioxidant activity assessed as NADH oxidation-induced superoxide radical scavenging activity after 20 mins; assay type: functional
pIC50: −log10 of the molar value.
Threshold check on pIC50: at or above 4 gives true (1), strictly below gives false (0).

Worked cases, answers included:
                         structure_smiles  assigned_label
0  CCCc1nccn1CC(=O)c1ccc([N+](=O)[O-])cc1        true (1)
1  Cc1cn(CC(=O)c2ccc([N+](=O)[O-])cc2)cn1        true (1)

q: Does pIC50 meet or surpass 4 for `O=C(Cn1ccnc1)c1ccc([N+](=O)[O-])cc1` ?
a: false (0)

q: Please tell me: is the compound `CC(C)c1nccn1CC(=O)c1ccc([N+](=O)[O-])cc1` at or over 4 in terms of pIC50?
a: false (0)

q: I'd appreciate it if you could say whether `Cc1nccn1CC(=O)c1ccc([N+](=O)[O-])cc1` has pIC50 at least equal to 4.
a: true (1)

q: Dear colleague, could you confirm whether `Cc1cc2ncn(CC(=O)c3ccc([N+](=O)[O-])cc3)c2cc1C` has pIC50 at or above 4?
a: false (0)

Origin of measurements: ChEMBL document CHEMBL1944541
